// data source = ChEMBL document CHEMBL3734708

# Tested on: Vesicular stomatitis virus
# Test protocol: Antiviral activity against VSV Indiana ATCC VR-158 infected in african green monkey Vero-76 cells after 2 days by plaque reduction assay
# Format: functional, organism-based
# Study conditions: Indiana ATCC VR-158, Vero 76, 48 h
Measured property: EC50

[[record]]
smiles_structure = "COc1nc2cc3cccnc3c(Cl)c2nc1-c1ccccc1"
observed_value = "> 100 µM"

[[record]]
smiles_structure = "O=c1[nH]c2cc3cccnc3c(Cl)c2nc1-c1ccccc1"
observed_value = "> 100 µM"

[[record]]
smiles_structure = "N#CCn1c(=O)c(-c2ccccc2)nc2c(Cl)c3ncccc3cc21"
observed_value = "> 90 µM"

[[record]]
smiles_structure = "COc1nc2cc3cccnc3c(Cl)c2nc1Cc1ccccc1"
observed_value = "> 100 µM"

[[record]]
smiles_structure = "CCCn1c(=O)c(-c2ccccc2)nc2cc3cccnc3c(Cl)c21"
observed_value = "> 50 µM"

[[record]]
smiles_structure = "Cn1c(=O)c(-c2cccs2)nc2c(Cl)c3ncccc3cc21"
observed_value = "> 100 µM"

[[record]]
smiles_structure = "O=c1c(-c2ccccc2)nc2c(Cl)c3ncccc3cc2n1Cc1ccccc1"
observed_value = "> 90 µM"

[[record]]
smiles_structure = "c1ccc(-c2nc3cc4cccnc4cc3n2C2CCCCC2)cc1"
observed_value = "> 35 µM"

[[record]]
smiles_structure = "O=c1c(Cc2ccccc2)nc2cc3cccnc3c(Cl)c2n1C1CCCCC1"
observed_value = "> 20 µM"

[[record]]
smiles_structure = "c1csc(-c2nc3cc4cccnc4cc3n2C2CCCCC2)c1"
observed_value = "> 15 µM"

[[record]]
smiles_structure = "Cn1c(=O)c(-c2ccccc2)nc2c(Cl)c3ncccc3cc21"
observed_value = "> 100 µM"

[[record]]
smiles_structure = "O=c1c(-c2ccccc2)nc2c(Cl)c3ncccc3cc2n1Cc1ccc([N+](=O)[O-])cc1"
observed_value = "> 100 µM"

[[record]]
smiles_structure = "CCCn1c(-c2ccccc2)nc2cc3cccnc3cc21"
observed_value = "> 90 µM"

[[record]]
smiles_structure = "COc1nc2cc3cccnc3c(Cl)c2nc1-c1cccs1"
observed_value = "> 100 µM"

[[record]]
smiles_structure = "O=c1c(-c2ccccc2)nc2cc3cccnc3c(Cl)c2n1CC1CCCCC1"
observed_value = "> 20 µM"

[[record]]
smiles_structure = "CC(C)c1nc2c(Cl)c3ncccc3cc2[nH]c1=O"
observed_value = "> 100 µM"

[[record]]
smiles_structure = "CCOc1nc2cc3cccnc3c(Cl)c2nc1-c1ccccc1"
observed_value = "> 50 µM"

[[record]]
smiles_structure = "O=[N+]([O-])c1ccc(COc2nc3cc4cccnc4c(Cl)c3nc2-c2ccccc2)cc1"
observed_value = "> 100 µM"

[[record]]
smiles_structure = "COc1nc2cc3cccnc3c(Cl)c2nc1C(C)C"
observed_value = "> 100 µM"

[[record]]
smiles_structure = "CCn1c(=O)c(-c2ccccc2)nc2c(Cl)c3ncccc3cc21"
observed_value = "> 60 µM"

[[record]]
smiles_structure = "O=c1[nH]c2cc3cccnc3c(Cl)c2nc1Cc1ccccc1"
observed_value = "> 88 µM"

[[record]]
smiles_structure = "O=c1cnn([C@@H]2O[C@H](CO)[C@@H](O)[C@H]2O)c(=O)[nH]1"
observed_value = "1.2 µM"

[[record]]
smiles_structure = "O=c1c(-c2ccccc2)nc2cc3cccnc3c(Cl)c2n1C1CCCCC1"
observed_value = "> 70 µM"

[[record]]
smiles_structure = "c1ccc(Cc2nc3cc4cccnc4cc3n2CC2CCCCC2)cc1"
observed_value = "> 25 µM"

[[record]]
smiles_structure = "Cn1c(=O)c(Cc2ccccc2)nc2c(Cl)c3ncccc3cc21"
observed_value = "> 100 µM"

[[record]]
smiles_structure = "CC(C)c1nc2c(Cl)c3ncccc3cc2n(C)c1=O"
observed_value = "> 100 µM"

[[record]]
smiles_structure = "O=c1[nH]c2cc3cccnc3c(Cl)c2nc1-c1cccs1"
observed_value = "> 100 µM"

[[record]]
smiles_structure = "O=c1c(-c2cccs2)nc2cc3cccnc3c(Cl)c2n1C1CCCCC1"
observed_value = "> 100 µM"


----------
# System: Human immunodeficiency virus 1
# Test protocol: Antiviral activity against HIV-1 3B infected in human MT4 cells assessed as protection against virus-induced cytopathic effect after 4 days by MTT assay
# Assay type: functional, organism-based
# Study conditions: Human immunodeficiency virus 1, 3B, MT4, 96 h
pEC50: −log10 of the molar value.
Measured pEC50 of individual entries
Measured property: pEC50

[[record]]
smiles_structure = "Cn1c(=O)c(-c2ccccc2)nc2c(Cl)c3ncccc3cc21"
test_system = "Human immunodeficiency virus 1"
observed_value = "< 4.00"

[[record]]
smiles_structure = "O=c1c(-c2cccs2)nc2cc3cccnc3c(Cl)c2n1C1CCCCC1"
test_system = "Human immunodeficiency virus 1"
observed_value = "< 4.00"

[[record]]
smiles_structure = "O=c1[nH]c2cc3cccnc3c(Cl)c2nc1Cc1ccccc1"
test_system = "Human immunodeficiency virus 1"
observed_value = "< 4.82"

[[record]]
smiles_structure = "O=c1c(-c2ccccc2)nc2cc3cccnc3c(Cl)c2n1CC1CCCCC1"
test_system = "Human immunodeficiency virus 1"
observed_value = "< 4.64"

[[record]]
smiles_structure = "CCOc1nc2cc3cccnc3c(Cl)c2nc1-c1ccccc1"
test_system = "Human immunodeficiency virus 1"
observed_value = "< 4.00"

[[record]]
smiles_structure = "O=[N+]([O-])c1ccc(COc2nc3cc4cccnc4c(Cl)c3nc2-c2ccccc2)cc1"
test_system = "Human immunodeficiency virus 1"
observed_value = "< 4.00"

[[record]]
smiles_structure = "O=c1c(-c2ccccc2)nc2c(Cl)c3ncccc3cc2n1Cc1ccccc1"
test_system = "Human immunodeficiency virus 1"
observed_value = "< 4.06"

[[record]]
smiles_structure = "CC(C)c1nc2c(Cl)c3ncccc3cc2n(C)c1=O"
test_system = "Human immunodeficiency virus 1"
observed_value = "< 4.00"

[[record]]
smiles_structure = "CCCn1c(=O)c(-c2ccccc2)nc2cc3cccnc3c(Cl)c21"
test_system = "Human immunodeficiency virus 1"
observed_value = "< 4.40"

[[record]]
smiles_structure = "O=c1[nH]c2cc3cccnc3c(Cl)c2nc1-c1ccccc1"
test_system = "Human immunodeficiency virus 1"
observed_value = "< 4.21"

[[record]]
smiles_structure = "O=c1[nH]c2cc3cccnc3c(Cl)c2nc1-c1cccs1"
test_system = "Human immunodeficiency virus 1"
observed_value = "< 4.00"


----------
# System: Human alphaherpesvirus 1
# Test protocol: Antiviral activity against HSV-1 KOS ATCC VR- 1493 infected in african green monkey Vero-76 cells after 3 days by plaque reduction assay
# Format: functional, organism-based
# Study conditions: Human alphaherpesvirus 1, KOS ATCC VR1493, Vero 76, 72 h
// reported EC50 per item
Measured property: EC50

[[record]]
smiles_structure = "c1ccc(-c2nc3cc4cccnc4cc3n2C2CCCCC2)cc1"
measured_property = "EC50"
observed_value = "> 35 µM"

[[record]]
smiles_structure = "O=[N+]([O-])c1ccc(COc2nc3cc4cccnc4c(Cl)c3nc2-c2ccccc2)cc1"
measured_property = "EC50"
observed_value = "> 100 µM"

[[record]]
smiles_structure = "O=c1c(-c2cccs2)nc2cc3cccnc3c(Cl)c2n1C1CCCCC1"
measured_property = "EC50"
observed_value = "> 100 µM"

[[record]]
smiles_structure = "c1ccc(Cc2nc3cc4cccnc4cc3n2CC2CCCCC2)cc1"
measured_property = "EC50"
observed_value = "> 25 µM"

[[record]]
smiles_structure = "O=c1c(-c2ccccc2)nc2cc3cccnc3c(Cl)c2n1CC1CCCCC1"
measured_property = "EC50"
observed_value = "> 20 µM"

[[record]]
smiles_structure = "CC(C)c1nc2c(Cl)c3ncccc3cc2n(C)c1=O"
measured_property = "EC50"
observed_value = "> 100 µM"

[[record]]
smiles_structure = "COc1nc2cc3cccnc3c(Cl)c2nc1Cc1ccccc1"
measured_property = "EC50"
observed_value = "> 100 µM"

[[record]]
smiles_structure = "COc1nc2cc3cccnc3c(Cl)c2nc1-c1cccs1"
measured_property = "EC50"
observed_value = "> 100 µM"

[[record]]
smiles_structure = "c1csc(-c2nc3cc4cccnc4cc3n2C2CCCCC2)c1"
measured_property = "EC50"
observed_value = "> 15 µM"

[[record]]
smiles_structure = "O=c1c(-c2ccccc2)nc2c(Cl)c3ncccc3cc2n1Cc1ccc([N+](=O)[O-])cc1"
measured_property = "EC50"
observed_value = "> 100 µM"

[[record]]
smiles_structure = "COc1nc2cc3cccnc3c(Cl)c2nc1C(C)C"
measured_property = "EC50"
observed_value = "> 100 µM"

[[record]]
smiles_structure = "Cn1c(=O)c(Cc2ccccc2)nc2c(Cl)c3ncccc3cc21"
measured_property = "EC50"
observed_value = "> 100 µM"

[[record]]
smiles_structure = "N#CCn1c(=O)c(-c2ccccc2)nc2c(Cl)c3ncccc3cc21"
measured_property = "EC50"
observed_value = "> 90 µM"

[[record]]
smiles_structure = "CC(C)c1nc2c(Cl)c3ncccc3cc2[nH]c1=O"
measured_property = "EC50"
observed_value = "> 100 µM"

[[record]]
smiles_structure = "CCn1c(=O)c(-c2ccccc2)nc2c(Cl)c3ncccc3cc21"
measured_property = "EC50"
observed_value = "> 60 µM"

[[record]]
smiles_structure = "O=c1[nH]c2cc3cccnc3c(Cl)c2nc1Cc1ccccc1"
measured_property = "EC50"
observed_value = "> 88 µM"

[[record]]
smiles_structure = "COc1nc2cc3cccnc3c(Cl)c2nc1-c1ccccc1"
measured_property = "EC50"
observed_value = "> 100 µM"

[[record]]
smiles_structure = "O=c1[nH]c2cc3cccnc3c(Cl)c2nc1-c1cccs1"
measured_property = "EC50"
observed_value = "> 100 µM"

[[record]]
smiles_structure = "CCCn1c(-c2ccccc2)nc2cc3cccnc3cc21"
measured_property = "EC50"
observed_value = "> 90 µM"

[[record]]
smiles_structure = "Cn1c(=O)c(-c2ccccc2)nc2c(Cl)c3ncccc3cc21"
measured_property = "EC50"
observed_value = "> 100 µM"

[[record]]
smiles_structure = "O=c1c(-c2ccccc2)nc2c(Cl)c3ncccc3cc2n1Cc1ccccc1"
measured_property = "EC50"
observed_value = "> 100 µM"

[[record]]
smiles_structure = "O=c1c(-c2ccccc2)nc2cc3cccnc3c(Cl)c2n1C1CCCCC1"
measured_property = "EC50"
observed_value = "> 70 µM"

[[record]]
smiles_structure = "CCOc1nc2cc3cccnc3c(Cl)c2nc1-c1ccccc1"
measured_property = "EC50"
observed_value = "> 50 µM"

[[record]]
smiles_structure = "CCCn1c(=O)c(-c2ccccc2)nc2cc3cccnc3c(Cl)c21"
measured_property = "EC50"
observed_value = "> 50 µM"

[[record]]
smiles_structure = "O=c1[nH]c2cc3cccnc3c(Cl)c2nc1-c1ccccc1"
measured_property = "EC50"
observed_value = "> 100 µM"

[[record]]
smiles_structure = "O=c1c(Cc2ccccc2)nc2cc3cccnc3c(Cl)c2n1C1CCCCC1"
measured_property = "EC50"
observed_value = "> 20 µM"

[[record]]
smiles_structure = "Cn1c(=O)c(-c2cccs2)nc2c(Cl)c3ncccc3cc21"
measured_property = "EC50"
observed_value = "> 100 µM"

